B1: ETS1 (parent)
chain: FSEPSFITESYQTLHPISSEELLS

# Variants of: B1
# measurementProtocol: protein stability index of a GFP-peptide fusion (GPS, HEK-293T) (PSI 1-6); higher = more stable;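 note: lentivirally expressed fusions sorted by FACS into six bins by GFP to DsRed ratio, PSI derived from sequencing read proportions per bin multiplied by bin number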
# assayContext: c terminus: a fixed tail appended
For each of the variants below, state its protein stability index.
Returns: the value as a bare number; no unit string appended.

Data request: Entry F1K has what protein stability index?
Data returned: 4.06

Data request: Entry L23K has what protein stability index?
Data returned: 2.83

Data request: Entry S19I has what protein stability index?
Data returned: 2.13

Data request: Entry L14P has what protein stability index?
Data returned: 2.1

Data request: Entry S18V has what protein stability index?
Data returned: 2.13

Data request: Entry T13Q has what protein stability index?
Data returned: 2.4

Data request: Entry E3M has what protein stability index?
Data returned: 1.9

Data request: Entry L14G has what protein stability index?
Data returned: 2.19

Data request: Entry P16H has what protein stability index?
Data returned: 1.81

Data request: Entry F1T has what protein stability index?
Data returned: 4.51

Data request: Entry S18W has what protein stability index?
Data returned: 1.38
